# TESTED_SYSTEM: spike protein of SARS-CoV-2 strain B.1.351 (SARS-CoV-2, UniProt P0DTC2 14-1273)
# ASSAY_NAME: cell-based or functional assay
MEASURE: IC50 (FRNT neutralisation) (µg/mL)

| BINDER | MEASURE | INEQUALITY_SYMBOL | MEASURED_NUMBER |
| --- | --- | --- | --- |
| antibody 88 (antibody, V domains shown, also called mAb 88) VH: QLQLQESGPGLVKPSQTLSLTCTVSGGSISSGSYNWTWIRQPAGKGLEWIGRIYNSGSTNYNPSLKSRVTISVDTSKNQLSLKVRSVTAADTAVYYCARHCSGGTCYPKYYYGMDVWGQGTTVTVSS VL: QSALTQPPSVSEAPRQRVTISCSGSSSNIGNNAVNWYQQFPGKAPKLLIYYDDLLPSGVSDRFSGSKSGTSASLAISGVQSEDEADYYCAAWDDSLNVVVFGGGTKLTVL | IC50 (FRNT neutralisation) | > | 10 |
| antibody 150 (antibody, V domains shown) VH: QVQLVESGGGLIQPGGSLRLSCAASGVTVSSNYMSWVRQAPGKGLEWVSIIYSGGTTYYADSVKGRFTISRDSSMNTLYLQMNSLRAEDTAVYYCARDLMVYGIDVWGQGTTVTVSS VL: EIVMTQSPSSLSASVGDRVTITCRASQGISSYLAWYQQKPGKAPKLLIYAASTLQSGVPSRFSGSGSGTDFTLTISSLQPEDFATYYCQQLDSYPPGYTFGQGTKVDIK | IC50 (FRNT neutralisation) | = | 0.35 |
| antibody 158 (antibody, V domains shown, also called mAb 158) VH: EVQLLESGGDLIQPGGSLRLSCAASGVTVSSNYMSWVRQAPGKGLEWVSIIYPGGSTFYADSVKGRFTISRDNSKNTLYLQMHSLRAEDTAVYYCARDLGSGDMDVWGKGTTVTVSS VL: DIVMTQSPSFLSASVGDRVTITCRASQGISSYLAWYQQKPGKAPKLLIQAASTLQSGVPSRFSGSGSGTEFTLTISSLQPEDFATYYCQQLNSYRYTFGQGTKVEIK | IC50 (FRNT neutralisation) | > | 10 |
| antibody 384 (antibody, V domains shown) VH: EVQLVESGGGLVKPGESLRLSCAASGFTFSDYYMTWIRQAPGKGLEWVSYIRSSGHTIYYADSVKGRFTISRDNAKNSLYLQMNSLRVEDTAVYYCARGGVLRFLEWPLNAFDIWGQGTMVTVSS VL: DIQLTQSPSSLSASVGDRVTITCRASQGISNYLAWYQQKPGKVPKLLIYAASTLQSGVPSRFSGSGSGTDFTLTISSLQPEDVATYYCQKYNNALGTFGQGTKVEIK | IC50 (FRNT neutralisation) | > | 10 |
| antibody 165 (antibody, V domains shown, also called mAb 165) VH: QVQLVQSGPEVKKPGTSVKVSCKASGFTFTSSAVQWVRQARGQRLEWIGWIVVGSGNTNYAQKFQESVTITRDMSTSTAYMELSSLRSEDTAVYYCAAPHCIGGSCHDAFDIWGQGTMVTVSS VL: DIVMTQSPGTLSLSPGERATLSCRASQSVRSSYLAWYQQKPGQAPRLLIYGASRRGTGIPDRFSGSGSGTDFTLTISRLEPEDFAVYYCQQYGSSPWTFGQGTKVEIK | IC50 (FRNT neutralisation) | = | 0.054 |
